test: Dissociation constant, pKa of compound; type: physicochemical

- MOLECULE: "O=C1CC(c2ccccc2O)Oc2ccccc21 (stereo unspecified) [2'-HYDROXY-FLAVANONE]"
  pKa: 6.67
